Observed Ki, system Alpha-2A adrenergic receptor (Homo sapiens).
experimental_readout: Ki (µM)

1) CC(C)(C)OC(=O)NCC#Cc1ccc2c(c1)C=C([N+](=O)[O-])C(C(F)(F)F)O2 (centres undefined)	0.94

[P] O=[N+]([O-])C1=Cc2cc(I)ccc2OC1C(F)(F)F (centres undefined)
[Q] O=C(O)c1ccc(C#Cc2ccc3c(c2)C=C([N+](=O)[O-])C(C(F)(F)F)O3)cc1 (centres undefined)
Thinking about recorded Ki values, which is higher, P or Q ? # reply format: chosen label
P
(P: 4.8 µM, Q: 1.8 µM)

* * *

system_name: D(1B) dopamine receptor (Homo sapiens)
Sequence (P21918 whole entry): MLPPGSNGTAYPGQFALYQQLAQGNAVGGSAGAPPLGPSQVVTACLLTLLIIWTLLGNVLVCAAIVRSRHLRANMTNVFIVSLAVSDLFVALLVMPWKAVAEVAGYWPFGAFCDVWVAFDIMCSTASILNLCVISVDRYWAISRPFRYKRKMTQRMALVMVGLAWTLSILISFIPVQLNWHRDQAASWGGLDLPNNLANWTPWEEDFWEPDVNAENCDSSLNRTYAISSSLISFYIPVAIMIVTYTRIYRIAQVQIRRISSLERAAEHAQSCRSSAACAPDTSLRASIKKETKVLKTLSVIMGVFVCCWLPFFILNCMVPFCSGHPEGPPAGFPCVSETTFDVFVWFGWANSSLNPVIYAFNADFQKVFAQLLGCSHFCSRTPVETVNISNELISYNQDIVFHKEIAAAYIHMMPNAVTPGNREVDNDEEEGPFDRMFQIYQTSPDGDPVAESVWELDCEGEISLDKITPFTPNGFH
pKi: −log10 of the molar value.
experimental_readout: pKi

1. O=C1c2ccccc2C(=O)N1CC#Cc1ccc2c(c1)C=C([N+](=O)[O-])C(C(F)(F)F)O2 (stereo not drawn)	5.85
2. O=[N+]([O-])C1=Cc2cc(I)ccc2OC1C(F)(F)F (stereo not drawn)	5.80
3. C[Si](C)(C)C#Cc1ccc2c(c1)C=C([N+](=O)[O-])C(C(F)(F)F)O2 (stereo not drawn)	5.38
